Experiment: log P by HPLC on a reversed-phase column (C 18), EEC Directive 79/831 Annex V.A8
Format: physicochemical
Settings: HPLC, reversed-phase column (C 18), 40° C.; 0.1% aqueous formic acid and acetonitrile, linear gradient 10% to 90% acetonitrile
Experimental: In table 1, the log P values were determined in accordance with EEC Directive 79/831 Annex V.A8 by HPLC (High Performance Liquid Chromatography) on a reversed-phase column (C 18), using the method described below: Temperature: 40° C.; Mobile phases: 0.1% aqueous formic acid and acetonitrile; linear gradient from 10% acetonitrile to 90% acetonitrile. […]
READOUT_KIND: logP

Check out these entries, answers already filled in.
CCC1(c2ccc(C)cc2CN(C(=O)c2c(OC(F)F)nn(C)c2F)C2CC2)CC1 [Example 1.098] ... 4.72
Cc1nn(C)c(F)c1C(=O)N(Cc1cc(Br)ccc1C1(C)CC1)C1CC1 [Example 1.027] ... 3.99
CCC1(c2cc(C)c(F)cc2CN(C(=O)c2cn(C)nc2C(F)F)C2CC2)CC1 [Example 1.081] ... 4.24

I'd like to know its logP. The molecule in question is Cc1cc(C(=O)N(Cc2ccc(-c3ccccc3)cc2C2(C)CC2)C2CC2)c(C)o1 [Example 1.021]
5.48

I'd like to know its logP. The molecule in question is Cc1ccc(C2(C)CC2)c(CN(C(=S)c2oc(C)nc2C(F)F)C2CC2)c1 [Example 1.053]
4.92

I'd like to know its logP. The molecule in question is Cn1cc(C(F)F)c(C(=O)N(Cc2cc(Br)ccc2C2(C)CC2)C2CC2)n1 [Example 1.025]
4.39

I'd like to know its logP. The molecule in question is CCC1(c2ccc(C)cc2CN(C(=S)c2cn(C)nc2C(F)F)C2CC2)CC1 [Example 1.099]
4.69

I'd like to know its logP. The molecule in question is COc1ccc(CN(C(=O)c2cn(C)nc2C(F)F)C2CC2)c(C2(C)CC2)c1 [Example 1.017]
3.31

====

Test system: Phakopsora pachyrhizi
Experiment: In vivo preventive test on Phakopsora pachyrhizi (soybean rust)
Settings: Table C1, dose 10 ppm
Recorded measurements of Efficacy, one per entry

// map `Cc1ccc(C2(C)CC2)c(CN(C(=O)c2c(C)nn(C)c2F)C2CC2)c1` to recorded Efficacy (system: Phakopsora pachyrhizi)
99%

// map `CCCC1(c2ccc(C)cc2CN(C(=O)c2c(C)nn(C)c2F)C2CC2)CC1` to recorded Efficacy (system: Phakopsora pachyrhizi)
85%

// map Cn1nc(C(F)F)c(C(=O)N(Cc2cc(F)ccc2C2CC2)C2CC2)c1F [123 from WO-2010/130767, reference compound] to recorded Efficacy (system: Phakopsora pachyrhizi)
0/23

// map Cn1nc(C(F)F)c(C(=O)N(Cc2ccccc2C2CC2)C2CC2)c1F [47 from WO-2010/130767, reference compound] to recorded Efficacy (system: Phakopsora pachyrhizi)
0%

====

Assay: log P by HPLC on a reversed-phase column (C 18), EEC Directive 79/831 Annex V.A8
Type: physicochemical
Settings: HPLC, reversed-phase column (C 18), 40° C.; 0.1% aqueous formic acid and acetonitrile, linear gradient 10% to 90% acetonitrile
Recorded measurements of logP, one per entry
Kindly provide the number alone.

Check out these entries, answers already filled in.
Cc1ccc(C2(C)CC2)c(CN(C(=O)c2c(C(F)F)nn(C)c2C(F)F)C2CC2)c1 ... 4.36
CCC1(c2ccc(C)cc2CN(C(=O)c2nn(C)nc2C(F)F)C2CC2)CC1 ... 4.77
Cc1ccc(C2(C)CC2)c(CN(C(=O)c2cc(C)oc2C)C2CC2)c1 ... 4.85

I'd like to know its logP. The compound in question is `Cc1ccc(C2(C3CC3)CC2)c(CN(C(=O)c2cc(C)oc2C)C2CC2)c1`
5.05

I'd like to know its logP. The compound in question is `Cc1ccc(C2(C)CC2)c(CN(C(=O)c2cn(C)nc2C(F)(F)F)C2CC2)c1`
4.16
